Property: IC50; scope: individual compounds
System: CEM cells HIV-1 protection, formazan growth assay
method: NCI AIDS Antiviral Assay
stated.conditions: measured here: growth of uninfected CEM cells
Method: The ability of compounds to protect human CEM cells from HIV-1 infection is measured as a screen for new compounds capable of inhibiting the HIV virus. Five concentrations of drug were tested on uninfected and infected cells and cell growth was measured using a soluble formazan assay. […] Compounds that provided at least 50% protection were retested. Compounds that provided at least 50% protection on retest were listed as moderately active. […]

# compound, measured.on, IC50
data = [
    ("COc1cc(C2[C@H]3C(=O)N(c4ccc(Cc5ccc(N6C(=O)[C@@H]7ON(c8ccccc8)C(c8cc(OC)c(OC)c(OC)c8)[C@@H]7C6=O)cc5)cc4)C(=O)[C@H]3ON2c2ccccc2)cc(OC)c1OC (some centres undefined)", "CEM cells HIV-1 protection, formazan growth assay", "> 5.62 µM"),
    ("O=C(O)CSCCOCCSCC(=O)O", "CEM cells HIV-1 protection, formazan growth assay", "> 708 µM"),
    ("CC(=O)OCC(OC(C)=O)C(OC(C)=O)C(Cn1c(=O)cc(C)c2ccc(C)c(C)c21)OC(C)=O (centres undefined)", "CEM cells HIV-1 protection, formazan growth assay", "> 200 µM"),
    ("Cc1cc2c(cc1Cl)SC(C(=O)c1cccc([N+](=O)[O-])c1)=NS2(=O)=O", "CEM cells HIV-1 protection, formazan growth assay", "> 200 µM"),
]

Hello, the source for this data is PubChem BioAssay AID179, in case you need it.
